molecular target: TRX-APRIL (mouse) (UniProt Q9D777); assay: competitive SPR; elute 2
Sequence (Q9D777 104-241): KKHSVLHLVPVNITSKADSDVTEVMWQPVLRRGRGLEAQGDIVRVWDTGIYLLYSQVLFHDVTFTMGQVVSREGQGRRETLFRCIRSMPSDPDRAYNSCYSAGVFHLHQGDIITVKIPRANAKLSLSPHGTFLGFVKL

Substance	IC50 [nM]
hTACI CRD1 LS (human TACI CRD1 R32-R67 with NHQSQRT replaced by GQHPKQ of CRD2)	129
